- experimental.protocol: Pharmacokinetic profile, plasma concentrations by LC/MS/MS
- Format: in vivo, female Crl: CD1 mice
- condition: female, Crl: CD1, mouse, plasma, iv, 30 mg/kg, I.V., read-out: half life t1/2 β (converted)
measurement.kind: half-life (h)
Response body: numeric value in h, unit text excluded.

Look at this compound and give its reported half-life. CC(C)=CCC/C(C)=C/CC/C(C)=C/CN1C(=O)c2cccc(O)c2Nc2c(O)cc(O)cc21 2.56

----------
- experimental.protocol: Pharmacokinetic profile, plasma concentrations by LC/MS/MS
- Type: in vivo, female Crl: CD1 mice
- condition: female, Crl: CD1, mouse; iv, 30 mg/kg, mice plasma; read-out: observed Cmax
measurement.kind: Cmax

Given the compound CC(C)=CCC/C(C)=C/CC/C(C)=C/CN1C(=O)c2cccc(O)c2N(C)c2c(O)cc(O)cc21 [Compound 2] , what is its reported Cmax? 105 µg/mL

Please look up its Cmax: CC(C)=CCC/C(C)=C/CC/C(C)=C/CN1C(=O)c2cccc(O)c2Nc2c(O)cc(O)cc21 [Compound 1] 130 µg/mL
